# Test system: Pseudomonas aeruginosa
# ASSAY_EXPLANATION: Antibacterial activity against IMP-4 producing Pseudomonas aeruginosa isolate 208247 after 18 hrs in presence of BPL by CLSI broth microdilution method
# Assay type: functional
# EXPERIMENTAL_PARAMETERS: isolate 208247, 18 h
MEASURED_METRIC: MIC

Some solved cases for reference:
CC(C)C(O/N=C(\C(=O)N[C@@H]1C(=O)N(S(=O)(=O)O)C12CCCC2)c1csc(N)n1)c1cc(=O)c(O)cn1O (stereo partly drawn)    8 µg/mL
Cc1csc(SC[C@@H]2[C@H](NC(=O)/C(=N\OC(c3cc(=O)c(O)cn3O)C(C)C)c3csc(N)n3)C(=O)N2S(=O)(=O)O)n1 (stereo partly drawn)    64 µg/mL
C#CC1[C@H](NC(=O)/C(=N\OC(c2cc(=O)c(O)cn2O)C(C)C)c2csc(N)n2)C(=O)N1S(=O)(=O)O (stereo partly drawn)    32 µg/mL

Data request: Give me measured MIC, please, for this molecule: Cc1nnc(SC[C@@H]2[C@H](NC(=O)/C(=N\OC(c3cc(=O)c(O)cn3O)C(C)C)c3csc(N)n3)C(=O)N2S(=O)(=O)O)s1 (stereo partly drawn)
Data returned: > 64 µg/mL

Data request: Supply MIC value. Item: CC(C)C(O/N=C(\C(=O)N[C@@H]1C(=O)N(S(=O)(=O)O)[C@@H]1CO)c1csc(N)n1)c1cc(=O)c(O)cn1O (stereo partly drawn)
Data returned: > 64 µg/mL

Data request: Please list MIC recorded for the molecule CC(C)C(O/N=C(\C(=O)N[C@@H]1C(=O)N(S(=O)(=O)O)[C@@H]1COS(=O)(=O)O)c1csc(N)n1)c1cc(=O)c(O)cn1O (stereo partly drawn)
Data returned: 32 µg/mL

Data request: Identify measured MIC associated with CC(C)C(O/N=C(\C(=O)N[C@@H]1C(=O)N(S(=O)(=O)O)[C@@H]1COC(N)=O)c1csc(N)n1)c1cc(=O)c(O)cn1O (stereo partly drawn)
Data returned: 4 µg/mL

Data request: Identify measured MIC corresponding to CC(C)C(O/N=C(\C(=O)N[C@@H]1C(=O)N(S(=O)(=O)O)[C@@H]1COC(=O)CNC(=O)c1cc(=O)c(O)c[nH]1)c1csc(N)n1)c1cc(=O)c(O)cn1O (stereo partly drawn)
Data returned: 64 µg/mL

---

Overview of reported MIC across a group of compounds:
# Test system: Klebsiella pneumoniae
# ASSAY_EXPLANATION: Antibacterial activity against KPC-2 producing Klebsiella pneumoniae isolate 209632 after 18 hrs in presence of BPL by CLSI broth microdilution method
# Assay type: functional
# EXPERIMENTAL_PARAMETERS: isolate 209632, 18 h
Quick reminder: number only, in µg/mL, skip the unit.

CC(C)C(O/N=C(\C(=O)N[C@@H]1C(=O)N(S(=O)(=O)O)[C@@H]1COS(=O)(=O)O)c1csc(N)n1)c1cc(=O)c(O)cn1O (some centres undefined)    0.125
CC(C)C(O/N=C(\C(=O)N[C@@H]1C(=O)N(S(=O)(=O)O)[C@@H]1Cn1cc(COCc2cc(=O)c(O)cn2O)nn1)c1csc(N)n1)c1cc(=O)c(O)cn1O (some centres undefined)    0.25
CC(C)C(O/N=C(\C(=O)N[C@@H]1C(=O)N(S(=O)(=O)O)[C@@H]1CO)c1csc(N)n1)c1cc(=O)c(O)cn1O (some centres undefined)    2

Data request: Please list MIC recorded for the compound CC(C)C(O/N=C(\C(=O)N[C@@H]1C(=O)N(S(=O)(=O)O)[C@@H]1CSc1nc2ccccc2o1)c1csc(N)n1)c1cc(=O)c(O)cn1O (some centres undefined)
Data returned: 2

Data request: Please indicate MIC recorded for CC(C)C(O/N=C(\C(=O)NC1C(=O)N(S(=O)(=O)O)C12CCCC2)c1csc(N)n1)c1cc(=O)c(O)cn1O (centres undefined)
Data returned: 1

Data request: Indicate the recorded MIC value for this compound: Cc1nnc(SC[C@@H]2[C@H](NC(=O)/C(=N\OC(c3cc(=O)c(O)cn3O)C(C)C)c3csc(N)n3)C(=O)N2S(=O)(=O)O)s1 (some centres undefined)
Data returned: 0.25

---

# Test system: Klebsiella pneumoniae
# ASSAY_EXPLANATION: Selectivity index, ratio of MIC for against KPC-2 producing Klebsiella pneumoniae isolate 212423 to MIC for against KPC-2 producing Klebsiella pneumoniae isolate 212423 in presence of BPL
# Assay type: functional
Listed below: Selectivity Index values for each entry.
Please reply with the value in numeric form only.

CC(C)C(O/N=C(\C(=O)NC1C(=O)N(S(=O)(=O)O)C12CCCC2)c1csc(N)n1)c1cc(=O)c(O)cn1O (configuration not stated)    2
CC(C)C(O/N=C(\C(=O)N[C@@H]1C(=O)N(S(=O)(=O)O)[C@@H]1CO)c1csc(N)n1)c1cc(=O)c(O)cn1O (some centres not stated)    1
CC(=O)OC[C@@H]1[C@H](NC(=O)/C(=N\OC(c2cc(=O)c(O)cn2O)C(C)C)c2csc(N)n2)C(=O)N1S(=O)(=O)O (some centres not stated)    2
Cc1csc(SC[C@@H]2[C@H](NC(=O)/C(=N\OC(c3cc(=O)c(O)cn3O)C(C)C)c3csc(N)n3)C(=O)N2S(=O)(=O)O)n1 (some centres not stated)    2

As a next step, examine the molecule that follows.
Data request: Name the recorded Selectivity Index of the item CC(C)C(O/N=C(\C(=O)N[C@@H]1C(=O)N(S(=O)(=O)O)[C@@H]1Cn1cc(COCc2cc(=O)c(O)cn2O)nn1)c1csc(N)n1)c1cc(=O)c(O)cn1O (some centres not stated) in your answer.
Data returned: 8

---

# Tested on: Escherichia coli
# ASSAY_EXPLANATION: Selectivity index, ratio of MIC for against Escherichia coli isolate 210737 to MIC for Escherichia coli isolate 210737 in presence of BPL
# Format: functional
MEASURED_METRIC: Selectivity Index

Please review the entries below; each comes with its answer.
CC(C)C(O/N=C(\C(=O)N[C@@H]1C(=O)N(S(=O)(=O)O)[C@@H]1COC(=O)C1CN(C(=O)c2ccc(O)c(O)c2Cl)C1)c1csc(N)n1)c1cc(=O)c(O)cn1O (stereo partly drawn)    1 - 8
C=CC1[C@H](NC(=O)/C(=N\OC(c2cc(=O)c(O)cn2O)C(C)C)c2csc(N)n2)C(=O)N1S(=O)(=O)O (stereo partly drawn)    1 - 32

Attention now turns to another entry.
Data request: Answer briefly: Selectivity Index recorded on Escherichia coli for CC(C)C(O/N=C(\C(=O)N[C@@H]1C(=O)N(S(=O)(=O)O)[C@@H]1COC(=O)c1ccc(O)c(O)c1Cl)c1csc(N)n1)c1cc(=O)c(O)cn1O (stereo partly drawn)
Data returned: 1 - 2

---

# Tested on: Klebsiella pneumoniae
# ASSAY_EXPLANATION: Antibacterial activity against KPC-2 producing Klebsiella pneumoniae isolate 209632 after 18 hrs in presence of BPL by CLSI broth microdilution method
# Type: functional
# EXPERIMENTAL_PARAMETERS: isolate 209632, 18 h
MEASURED_METRIC: MIC

C#CC1[C@H](NC(=O)/C(=N\OC(c2cc(=O)c(O)cn2O)C(C)C)c2csc(N)n2)C(=O)N1S(=O)(=O)O (stereo partly drawn)    > 64 µg/mL
C=CC1[C@H](NC(=O)/C(=N\OC(c2cc(=O)c(O)cn2O)C(C)C)c2csc(N)n2)C(=O)N1S(=O)(=O)O (stereo partly drawn)    > 64 µg/mL

Kindly consider the entry below.
Data request: Write down MIC measured for item CC(C)C(O/N=C(\C(=O)N[C@@H]1C(=O)N(S(=O)(=O)O)[C@@H]1COC(=O)CNC(=O)c1cc(=O)c(O)c[nH]1)c1csc(N)n1)c1cc(=O)c(O)cn1O (stereo partly drawn)
Data returned: > 64 µg/mL

Origin of the recorded values: ChEMBL document CHEMBL4152188
